MEASURED_TARGET: gEgI WT: HSV2 gEgI heterodimer comprising gE and gI wildtype ectodomains (HSV2, UniProt P89475 21-416; P06764 21-256)
TEST_NAME: SPR binning; gEgI captured by mAb 17

BINDER: mAb clone 20 (antibody, V domains shown) VH: QVQLQQSGAELVRPGTSVKVSCKASGYAFTNYLIEWVKQRPGQGLEWIGVINPGSGGTNYNEKFKGKATLTADKSSSTAYMQLSSLTSDDSAVYFCARSHYGNYYAMDYWGQGTSVTVSS VL: NIVLTQSPASLAVSLGQRATISCRASESVDSYGNSFMHWYQQKPGQPPKLLIYLASNLESGVPARFSGSGSRTDFTLTIDPVEADDAATYYCQQNNEDPWTFGGGTKLEIK
RU (RU): 24
--
BINDER: mAb clone 39 (antibody, V domains shown) VH: EVKLVESGGGLVQPGGSLKLSCAASGFTFSSYTMSWVRQTPEKRLEWVAYISNGGGSTYYPDTVKGRFTISRDNAKNTLYLQMSSLKSEDTAMYYCARGVSYYGDLYYFDYWGQGTTLTVSS VL: DVVVTQTPLSLPVSFGDQVSISCRSSQSLANSYGNTYLSWYLHKPGQSPQLLIYGISNRFSGVPDRFSGSGSGTDFTLKISTIKPEDLGMYYCLQGTHQPWTFGGGTKLEIK
RU (RU): -0.6
--
BINDER: mAb clone 17 (antibody, V domains shown) VH: QVQLKESGPGLVAPSQSLSITCTVSGFSLTSYGVHWVRQPPGKGLEWLGVIWAGGSSNYNSALMSRLSISKDNSKSQVFLKMNSLQTDDTAMYYCARDGYGYVYYAMDYWGQGTSVTVSS VL: DIVMTQAAPSVPVTPGESVSISCRSSKSLLHSNGNTYLYWFLQRPGQSPQLLIYRMSNLASGVPDRFSGSGSGTAFTLRISRVEAEDVGVYYCMQHLEYPFTFGAGTKLELK
RU (RU): -8.7
--
BINDER: mAb clone 34 (antibody, V domains shown) VH: EVKLVESGGGLVQPGGSLKLSCATSGFTFSDYYMYWVRQTPEKRLEWVAYISNGGDSTYYPDTVKGRFTISRDNAKNTLYLQMSRLKSEDTAMYYCARSYYGNPFPYWGQGTLVTVSA VL: ENVLTQSPAIMSASPGEKVTMTCRASSSVSSSYLHWYQQKSGASPKLWIYSTSNLASGVPARFSGSGSGTSYSLTISSVEAEDAATYYCQQYSGYPLTFGAGTKLELK
RU (RU): -3.3
--
BINDER: mAb clone 24 (antibody, V domains shown) VH: EVQLQQSGPELVKPGASVKMSCKASGYTFTDYYMKWVKQSHGKSLEWIGDINPNNGDTFYNQKFKGKATLTVDKSSSTAYMQLNSLTSEDSAVYYCARRGFYYYGSRGGIMDYWGQGTSVTVSS VL: NIMMTQSPSSLAVSAGEKVTMSCKSSQSVLYSSNQKNYLAWYQQKPGQSPKLLIYWASTRESGVPDRFTGSGSGTDFTLTISSVQAEDLAVYYCHQYLSSYTFGGGTKLEIK
RU (RU): 32.1

Data credit: patent US20230331820A1
